The reported measurements were obtained from patent US6451288B1.

- EXPERIMENTAL TARGET: human P2Y6 receptor (Homo sapiens, UniProt Q15077)
- Sequence (Q15077 whole entry): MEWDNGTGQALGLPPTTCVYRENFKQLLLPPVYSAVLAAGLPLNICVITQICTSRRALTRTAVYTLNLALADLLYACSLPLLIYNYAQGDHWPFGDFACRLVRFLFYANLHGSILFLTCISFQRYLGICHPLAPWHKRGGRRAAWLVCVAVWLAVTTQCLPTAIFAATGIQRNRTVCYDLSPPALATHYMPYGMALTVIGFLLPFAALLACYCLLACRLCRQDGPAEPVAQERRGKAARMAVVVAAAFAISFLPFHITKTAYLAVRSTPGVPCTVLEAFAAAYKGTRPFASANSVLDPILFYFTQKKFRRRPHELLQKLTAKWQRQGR
- PROTOCOL: Inositol phosphate accumulation in 1321N1 astrocytoma cells overexpressing the human P2Y6 receptor
- STATED CONDITIONS: 60 min, hexokinase/glucose present
Parameter class (string): assigned from measured EC50. Ranges: band A: < 2 µM; band B: ≥ 2 µM and < 9 µM; band C: ≥ 9 µM

MOLECULE	QUALITATIVE LABEL
O=c1ccn([C@@H]2O[C@H](COP(=O)(O)OP(=O)(O)O)C[C@H]2O)c(=O)[nH]1 [Compound H, 3′-Deoxyuridine 5′-diphosphate]	band B
O=c1nc(N2CCOCC2)ccn1[C@@H]1O[C@H](COP(=O)(O)OP(=O)(O)O)[C@@H](O)[C@H]1O [Compound F, 4-(N-morpholino)uridine 5′-diphosphate]	band C
CN(C)c1ccn([C@@H]2O[C@H](COP(=O)(O)OP(=O)(O)O)[C@@H](O)[C@H]2O)c(=O)n1 [Compound C, N,N-dimethylcytidine 5′-diphosphate]	band C
O=c1nc(NC2CCCC2)ccn1[C@@H]1O[C@H](COP(=O)(O)OP(=O)(O)O)[C@@H](O)[C@H]1O [Compound I, N-Cyclopentylcytidine 5′-diphosphate]	band B
Cc1cn([C@@H]2O[C@H](COP(=O)(O)OP(=O)(O)O)[C@@H](O)[C@H]2O)c(=O)[nH]c1=O [Compound A, 5-Methyluridine 5′-diphosphate]	band A
O=c1[nH]c(=O)n([C@@H]2O[C@H](COP(=O)(O)OP(=O)(O)O)[C@@H](O)[C@H]2O)cc1C#Cc1ccccc1 [Compound G, 5-(Phenylethynyl)uridine 5′-diphosphate]	band A
CCCCCCOc1ccn([C@@H]2O[C@H](COP(=O)(O)OP(=O)(O)O)[C@@H](O)[C@H]2O)c(=O)n1 [Compound B, 4-Hexyloxyuridine 5′-diphosphate]	band B
COc1ccn([C@@H]2O[C@H](COP(=O)(O)OP(=O)(O)O)[C@@H](O)[C@H]2O)c(=O)n1 [Compound D, 4-Methoxyuridine 5′-diphosphate]	band B
CCCCCCNc1ccn([C@@H]2O[C@H](COP(=O)(O)OP(=O)(O)O)[C@@H](O)[C@H]2O)c(=O)n1 [Compound E, N-hexylcytidine 5′-diphosphate]	band C
CCCCCCSc1ccn([C@@H]2O[C@H](COP(=O)(O)OP(=O)(O)O)[C@@H](O)[C@H]2O)c(=O)n1 [Compound J, 4-Hexylthiouridine 5′-diphosphate]	band A
